# measurement-target: CtpB R168F (Bacillus subtilis, UniProt O35002, R168F)
# Construct: with the full-length CtpB variants R168A, R168F and V118Y; His tag; made in house; host or cells: E. coli BL21(DE3)pLysS
# Sequence (O35002 24-480 R168F): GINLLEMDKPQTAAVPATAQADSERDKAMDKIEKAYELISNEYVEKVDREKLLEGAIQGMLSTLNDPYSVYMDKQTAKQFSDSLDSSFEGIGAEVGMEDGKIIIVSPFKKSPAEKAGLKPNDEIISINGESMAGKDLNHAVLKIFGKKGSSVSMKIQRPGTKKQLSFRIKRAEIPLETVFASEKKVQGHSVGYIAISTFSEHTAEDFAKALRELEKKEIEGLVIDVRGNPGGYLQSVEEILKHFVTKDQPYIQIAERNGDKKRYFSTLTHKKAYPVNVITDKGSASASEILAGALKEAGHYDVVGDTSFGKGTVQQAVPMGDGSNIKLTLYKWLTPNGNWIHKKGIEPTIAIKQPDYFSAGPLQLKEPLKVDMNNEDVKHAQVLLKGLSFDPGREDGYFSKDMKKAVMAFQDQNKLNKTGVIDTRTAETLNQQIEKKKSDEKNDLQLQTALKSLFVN
# experiment-notes: Isothermal titration calorimetry, full-length CtpB R168F
# Type: binding
Ends that are not written are not given here.
test-readout: Kd (µM)
Please give a number only; it is taken to be in µM.

Data point: FMLLRRKAYA ; Kd = 40
